As shown below, each of these compounds has a reported Dmax value.
- Assay system: BCL-XL (Homo sapiens)
- Construct: endogenous in cells; host or cells: MOLT-4
- Sequence (Q07817 whole entry): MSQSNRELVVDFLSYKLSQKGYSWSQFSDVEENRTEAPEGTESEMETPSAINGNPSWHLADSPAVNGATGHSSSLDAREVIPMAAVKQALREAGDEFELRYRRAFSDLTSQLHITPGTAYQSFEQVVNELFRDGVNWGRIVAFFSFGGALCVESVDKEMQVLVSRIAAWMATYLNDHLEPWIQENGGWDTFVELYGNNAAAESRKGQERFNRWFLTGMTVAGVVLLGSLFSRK
- Assay overview: BCL-XL degradation assay, western blot in MOLT-4 cells, 16 h
- Assay type: cell-based
- Applied conditions: western blot, MOLT-4 cells, 16 h; read-out: Bcl-xL WB in MOLT-4 degradation 16 h: Average Dmax %

Compound	Dmax
Cc1ncsc1-c1ccc([C@H](C)NC(=O)[C@@H]2C[C@@H](O)CN2C(=O)[C@H](c2cc(N3CCN(c4ccc(S(=O)(=O)NC(=O)c5nc(N6CCc7cccc(C(=O)Nc8nc9ccccc9s8)c7C6)ccc5-c5cnn(CC6CCCCC6)c5C)cc4)CC3)no2)C(C)C)cc1 [I-213]	50 to 75%
Cc1ncsc1-c1ccc(CNC(=O)[C@@H]2C[C@@H](O)CN2C(=O)[C@@H](NC(=O)C2(F)CC2)C(C)(C)C)c(OCCN2CCN(C(=O)c3nc(N4CCc5cccc(C(=O)Nc6nc7ccccc7s6)c5C4)ccc3-c3cnn(CC4CCCCC4)c3C)CC2)c1 [I-201]	> 75%
Cc1ncsc1-c1ccc(CNC(=O)[C@@H]2C[C@@H](O)CN2C(=O)[C@@H](NC(=O)C2(F)CC2)C(C)(C)C)c(OCCCCCC(=O)N(C)CC#Cc2ccc(OCCCc3sc(N4CCc5cccc(C(=O)Nc6nc7ccccc7s6)c5C4)nc3C(=O)O)c(F)c2)c1 [I-7]	50 to 75%
Cc1ncsc1-c1ccc(CNC(=O)[C@@H]2C[C@@H](O)CN2C(=O)C(c2cc(OCCCC(=O)N3CCN(CC[C@H](CSc4ccccc4)Nc4ccc(S(=O)(=O)NC(=O)c5ccc(N6CCN(CC7=C(c8ccc(Cl)cc8)CCC(C)(C)C7)CC6)cc5)cc4S(=O)(=O)C(F)(F)F)CC3)no2)C(C)C)cc1 (stereo partly shown) [I-38]	50 to 75%

###

- Assay system: BCL-XL (Homo sapiens)
- Construct: endogenous in cells; host or cells: MOLT-4
- Assay overview: BCL-XL degradation assay, western blot in MOLT-4 cells, 16 h
- Format: cell-based
- Applied conditions: western blot, MOLT-4 cells, 16 h; read-out: Bcl-xL WB in MOLT-4 degradation 16 h: Average Dmax %
- Method: Compounds treatment: compounds were reconstituted in DMSO to make a stock concentration of 10 mM. MOLT-4 cells were maintained in RPMI-1640+10% FBS+1% Penicillin-Streptomycin. […] Supernatants were collected and protein concentration was measured by BCA assay kit (Solarbio. PC0020-500) following the manufacturer's protocol. […] The western blot images were obtained using Odyssey Imaging System and quantified using Image Studio Lite Ver 5.2 software. […]
# reported Dmax; entries follow
Readout type: Dmax

Compound	Readout type	Result
Cc1cc(N(C)c2ccc(-c3cnn(CC4CCCCC4)c3C)c(C(=O)NS(=O)(=O)CCCCCC(=O)N[C@H](C(=O)N3C[C@H](O)C[C@H]3C(=O)N[C@@H](C)c3ccc(-c4scnc4C)cc3)C(C)(C)C)n2)nnc1Nc1nc2ccccc2s1 [I-120]	Dmax	> 75%
Cc1ncsc1-c1ccc([C@H](C)NC(=O)[C@@H]2C[C@@H](O)CN2C(=O)C(c2cc(OC3CC4(C3)CN(C(=O)c3nc(N5CCc6cccc(C(=O)Nc7nc8ccccc8s7)c6C5)ccc3-c3cnn(CC5CCCCC5)c3C)C4)no2)C(C)C)cc1 (stereo partly shown) [I-237]	Dmax	> 75%
Cc1ncsc1-c1ccc(CNC(=O)[C@@H]2C[C@@H](O)CN2C(=O)[C@@H](NC(=O)C2(F)CC2)C(C)(C)C)c(OCCCC(=O)N(C)CC#Cc2cccc(F)c2OCCCc2sc(N3CCc4cccc(C(=O)Nc5nc6ccccc6s5)c4C3)nc2C(=O)O)c1 [I-18]	Dmax	50 to 75%
Cc1ncsc1-c1ccc(CNC(=O)[C@@H]2C[C@@H](O)CN2C(=O)[C@@H](c2cc(N3CC4(CN(CCCC(=O)N(C)CC#Cc5ccc(OCCCc6ccc(N7CCc8cccc(C(=O)Nc9nc%10ccccc%10s9)c8C7)nc6C(=O)O)c(F)c5)C4)C3)no2)C(C)C)cc1 [I-180]	Dmax	< 50%
